Target: 26S proteasome β1 subunit (caspase-like activity) (Homo sapiens)
Construct: gene PSMB6; purified human 26S proteasome; with other subunits of the 26S proteasome
Sequence (P28072 35-239): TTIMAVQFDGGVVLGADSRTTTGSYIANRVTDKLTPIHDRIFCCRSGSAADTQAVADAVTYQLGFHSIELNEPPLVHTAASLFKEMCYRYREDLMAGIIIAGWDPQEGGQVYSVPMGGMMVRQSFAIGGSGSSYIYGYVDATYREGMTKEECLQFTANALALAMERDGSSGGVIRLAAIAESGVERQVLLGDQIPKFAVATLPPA
Assay: peptidase assay of purified human […] proteasome with Z-Nle-Pro-Nle-Asp-aminoluciferin
Assay type: biochemical
measurement.label: IC50 (nM)
I only need the number, in nM, no unit after it.

Q: Request - read-out IC50 | tested on 26S proteasome β1 subunit (caspase-like activity) (Homo sapiens) | molecule Cc1cc(O)c2c(c1)C(=O)c1cc(O)cc(O)c1C2=O [emodin, 1,3,8-trihydroxy-6-methylanthraquinone]
A: 240

====

Molecular target: 26S proteasome β2 subunit (trypsin-like activity) (Homo sapiens, UniProt Q99436)
Construct: purified human 26S proteasome; with other subunits of the 26S proteasome
Sequence (Q99436 44-277): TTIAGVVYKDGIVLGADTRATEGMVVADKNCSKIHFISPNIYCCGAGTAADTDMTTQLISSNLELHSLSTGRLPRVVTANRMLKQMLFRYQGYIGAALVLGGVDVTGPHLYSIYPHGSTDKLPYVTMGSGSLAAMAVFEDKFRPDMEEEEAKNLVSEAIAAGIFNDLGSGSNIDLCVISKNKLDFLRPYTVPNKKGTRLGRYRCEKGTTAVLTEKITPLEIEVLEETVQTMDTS
Assay: peptidase assay of purified human […] proteasome with Ac-Arg-Leu-Arg-AMC
measurement.label: IC50 (µM)
# value in µM; strip the unit string

Q: # value lookup — system 26S proteasome β2 subunit (trypsin-like activity) (Homo sapiens, UniProt Q99436), readout IC50, item Cc1cc(O)c2c(c1)C(=O)c1cc(O)cc(O)c1C2=O [emodin, 1,3,8-trihydroxy-6-methylanthraquinone]
A: 20.9
